target under test: full length human TPH1 (Homo sapiens, UniProt P17752)
Construct: To generate the enzyme, full length human TPH1 is cloned into the plasmid pET20b(+); made in house; host or cells: E. coli
Sequence (P17752 1-444): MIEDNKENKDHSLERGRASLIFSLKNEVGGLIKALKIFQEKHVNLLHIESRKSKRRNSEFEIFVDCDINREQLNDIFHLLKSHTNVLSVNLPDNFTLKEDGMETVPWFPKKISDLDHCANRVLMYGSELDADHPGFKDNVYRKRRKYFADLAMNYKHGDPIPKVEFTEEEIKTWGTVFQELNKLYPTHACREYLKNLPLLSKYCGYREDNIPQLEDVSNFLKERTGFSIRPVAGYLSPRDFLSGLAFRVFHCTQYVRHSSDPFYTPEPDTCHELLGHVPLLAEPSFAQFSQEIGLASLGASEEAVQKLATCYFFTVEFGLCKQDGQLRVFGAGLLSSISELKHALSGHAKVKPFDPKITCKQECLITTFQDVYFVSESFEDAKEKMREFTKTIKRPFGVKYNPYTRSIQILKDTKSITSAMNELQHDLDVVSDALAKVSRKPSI
assay notes: Biochemical in vitro assay using fluorescence readout (TPH1 enzyme activity)
details: Table 1, mean where determined several times
// IC50 lookup, one value per entry
Expressed in nM, but write only the number.

Solved entries (count: 6):
compound: CS(=O)(=O)Nc1ccc(OCC(=O)N2CCc3nc4n(c3C2c2ccc(Cl)cc2F)CCC4)c(Cl)n1 (stereo not shown) [Example 2.1.1]
units symbol: nM
IC50: 13
--
compound: CC(=O)N1CCn2c(nc3c2C(c2sc(C(=O)N(C)C)cc2F)N(C(=O)COc2ccc(N4CCOCC4)nc2Cl)CC3)C1 (stereo not shown) [Example 5.7.2]
units symbol: nM
IC50: 6
--
compound: O=C(COc1ccc(N2CCOCC2)nc1Cl)N1CCc2nc3n(c2C1c1ccc(C2CC2)cc1F)CCOC3 (stereo not shown) [Example 6.2.1]
units symbol: nM
IC50: 4
--
compound: CCc1nc(NS(C)(=O)=O)ccc1OCC(=O)N1CCc2nc3n(c2C1c1cc(F)c(C)cc1F)CCS3 (stereo not shown) [Example 4.7.1]
units symbol: nM
IC50: 6
--
compound: COc1ccc(C2c3c(nc4n3CCCC4)CCN2C(=O)COc2ccc(NS(C)(=O)=O)nc2Cl)c(F)c1 (stereo not shown) [Example 1.21.2]
units symbol: nM
IC50: 78
--
compound: CC(=O)N1CCn2c(nc3c2C(c2ccc(Cl)cc2F)N(C(=O)COc2ccc(N4CC(F)(F)C4)nc2Cl)CC3)C1 (stereo not shown) [Example 5.1.1]
units symbol: nM
IC50: 7

Continue with the compound presented below.
## Task Find IC50 (full length human TPH1 (Homo sapiens, UniProt P17752)) for the entry CS(=O)(=O)Nc1ccc(OCC(=O)N2CCc3nc4n(c3C2c2sccc2F)CCOC4)c(Cl)n1 (stereo not shown) [Example 6.6.3]
## Result 160

====

// log10 of IC50 lookup, one value per entry
target under test: full length human TPH1 (Homo sapiens)
Construct: To generate the enzyme, full length human TPH1 is cloned into the plasmid pET20b(+); made in house; host or cells: E. coli
Sequence (P17752 1-444): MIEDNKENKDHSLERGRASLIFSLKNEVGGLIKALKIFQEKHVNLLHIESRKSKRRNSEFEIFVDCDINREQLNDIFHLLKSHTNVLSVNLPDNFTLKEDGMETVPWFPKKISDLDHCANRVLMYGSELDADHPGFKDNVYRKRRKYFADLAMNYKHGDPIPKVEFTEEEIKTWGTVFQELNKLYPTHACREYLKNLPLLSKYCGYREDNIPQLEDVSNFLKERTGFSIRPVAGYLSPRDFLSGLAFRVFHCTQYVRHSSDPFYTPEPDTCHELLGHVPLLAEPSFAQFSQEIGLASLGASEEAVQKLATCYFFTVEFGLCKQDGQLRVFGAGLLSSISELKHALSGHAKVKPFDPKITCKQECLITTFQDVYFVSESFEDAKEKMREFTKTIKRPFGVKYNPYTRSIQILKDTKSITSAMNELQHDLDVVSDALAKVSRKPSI
assay notes: Biochemical in vitro assay using fluorescence readout (TPH1 enzyme activity)
details: Table 1, mean where determined several times
Please note: log10 values; quantity IC50; unit nM.

molecule: Cc1ccc(C2c3c(nc4n3CCCC4)CCN2C(=O)COc2ccc(NS(C)(=O)=O)nc2Cl)c(F)c1 (centres unmarked)
value type: log10 of IC50
observed measurement: 1.61
//
molecule: Cc1nc(C)c(C2c3c(nc4n3CCCC4)CCN2C(=O)COc2ccc(C3CC3)nc2Cl)s1 (centres unmarked)
value type: log10 of IC50
observed measurement: 1.52
//
molecule: CC(=O)N1CCn2c(nc3c2C(c2cnc(N(C)C)s2)N(C(=O)COc2ccc(N4CCOCC4)nc2Cl)CC3)C1 (centres unmarked)
value type: log10 of IC50
observed measurement: 1.57

## Task Find log10 of IC50 (full length human TPH1 (Homo sapiens)) for the entry CC(C)(C)OC(=O)N1CCn2c(nc3c2C(c2ncc(C4CC4)cc2F)N(C(=O)COc2ccc(N4CCOCC4)nc2Cl)CC3)C1 (centres unmarked)
## Result 1.89

## Task Please answer likewise for CS(=O)(=O)c1ccc(OCC(=O)N2CCc3nc4n(c3C2c2ccc(Cl)cc2F)CCCC4)c(Cl)n1 (centres unmarked)
## Result 1.95
